- Target Entity: human ether-à-go-go-related gene (hERG) potassium channel (human, UniProt Q12809);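 also: peak tail current of the secondary pulse compared with the same well before compound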
- Sequence (Q12809 whole entry, looked up): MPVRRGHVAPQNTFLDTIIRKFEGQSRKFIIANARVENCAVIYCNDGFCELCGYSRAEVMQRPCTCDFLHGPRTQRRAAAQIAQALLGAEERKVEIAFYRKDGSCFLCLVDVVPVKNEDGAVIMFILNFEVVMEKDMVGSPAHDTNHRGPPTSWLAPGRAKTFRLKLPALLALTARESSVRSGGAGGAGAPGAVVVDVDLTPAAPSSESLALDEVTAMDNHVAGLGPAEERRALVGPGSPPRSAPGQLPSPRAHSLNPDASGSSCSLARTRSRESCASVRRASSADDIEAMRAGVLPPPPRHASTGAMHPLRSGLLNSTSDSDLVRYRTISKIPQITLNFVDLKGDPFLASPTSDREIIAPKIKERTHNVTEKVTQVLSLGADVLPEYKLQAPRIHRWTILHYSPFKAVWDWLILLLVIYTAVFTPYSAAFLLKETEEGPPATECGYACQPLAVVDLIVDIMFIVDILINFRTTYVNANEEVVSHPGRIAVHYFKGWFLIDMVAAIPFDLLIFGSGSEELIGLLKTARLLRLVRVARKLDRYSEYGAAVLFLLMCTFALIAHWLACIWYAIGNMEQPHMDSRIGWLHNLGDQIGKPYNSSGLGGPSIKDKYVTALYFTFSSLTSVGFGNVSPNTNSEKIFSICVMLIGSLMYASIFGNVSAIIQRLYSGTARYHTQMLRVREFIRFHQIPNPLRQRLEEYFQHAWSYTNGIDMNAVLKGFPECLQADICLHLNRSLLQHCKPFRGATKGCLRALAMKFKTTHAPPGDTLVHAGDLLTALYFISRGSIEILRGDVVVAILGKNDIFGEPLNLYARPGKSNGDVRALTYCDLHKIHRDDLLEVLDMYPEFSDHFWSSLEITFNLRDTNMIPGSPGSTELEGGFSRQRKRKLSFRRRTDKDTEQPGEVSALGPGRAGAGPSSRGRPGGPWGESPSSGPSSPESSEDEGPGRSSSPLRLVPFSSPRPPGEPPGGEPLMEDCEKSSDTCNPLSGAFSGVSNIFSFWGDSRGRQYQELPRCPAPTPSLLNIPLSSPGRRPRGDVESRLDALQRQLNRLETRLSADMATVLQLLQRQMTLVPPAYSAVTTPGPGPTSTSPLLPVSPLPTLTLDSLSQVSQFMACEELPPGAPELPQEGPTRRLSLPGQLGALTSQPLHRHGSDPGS
- Test Protocol: primary screen, population patch clamp on CHO cells stably expressing hERG; higher = less effect of the substance
Among all 310,000 compounds or so, about 14,000 (4.5%) showed an effect of 50% or more. Effects have a minus sign here. This excerpt belongs to a sample that is enriched for strong results.
Hi there, I'd appreciate the recorded hERG current change (%, negative = inhibition) at 10uM for every entry that follows.
Numbers only, in %.

Here are 5 molecules. What values of hERG current change (%, negative = inhibition) at 10uM were reported for them?
1. Cc1cccc(OC2CCN(Cc3c(C(=O)N4CCCC4)nc4ccccn34)CC2)c1
2. O=C(c1nc2ccccn2c1CN1CCN(c2ccccc2O)CC1)N1CCCC1
3. COC1CCN(Cc2c(C(=O)N3CCN(C4CCCCC4)CC3)nc3ccccn23)CC1
4. Cc1cccc(CN2CCC(Oc3ccc(C(=O)N4CCCCC4)cc3)CC2)c1
5. Cc1ccc(OCc2cc(C(=O)N3CC4C[C@@H]5CC3C[C@H](C4)C5)no2)cc1C

Result:
[-59.4, 34.7, 5.42, -21.9, 15.7]
